# Test system: USP2 full length (USP2^FL) (Homo sapiens, UniProt O75604)
# Construct: purchased BioSciences 80352
# Sequence (O75604 whole entry): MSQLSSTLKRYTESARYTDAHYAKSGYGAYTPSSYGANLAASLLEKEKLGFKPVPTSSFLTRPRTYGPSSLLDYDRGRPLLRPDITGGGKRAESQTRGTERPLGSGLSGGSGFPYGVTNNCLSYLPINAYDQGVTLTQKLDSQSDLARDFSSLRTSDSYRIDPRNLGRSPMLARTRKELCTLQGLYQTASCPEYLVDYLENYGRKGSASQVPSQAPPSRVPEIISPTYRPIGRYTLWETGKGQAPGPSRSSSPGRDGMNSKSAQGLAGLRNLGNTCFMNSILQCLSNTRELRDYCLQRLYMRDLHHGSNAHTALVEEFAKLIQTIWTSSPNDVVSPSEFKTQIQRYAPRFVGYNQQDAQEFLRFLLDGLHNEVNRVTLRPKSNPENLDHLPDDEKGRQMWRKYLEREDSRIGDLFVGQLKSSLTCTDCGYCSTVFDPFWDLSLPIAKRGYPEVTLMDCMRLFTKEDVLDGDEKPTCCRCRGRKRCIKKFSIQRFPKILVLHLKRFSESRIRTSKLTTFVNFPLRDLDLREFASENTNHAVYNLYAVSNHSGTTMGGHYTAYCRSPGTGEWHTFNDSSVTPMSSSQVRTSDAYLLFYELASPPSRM
# Assay method text: Inhibition of Ub-AMC hydrolysis by USP2 full length
# Type: biochemical
# Particulars: 5 μM compound; Ub-AMC at 1 μM; Table 1a
Kind request: treat 50% as inclusive, so inhibition at 5 µM at 50% or higher is Fulfilled, anything lower is Not fulfilled.

Q: Item CC/C=C/c1nc2c(nc1/C=C/CC)C(=O)c1ccccc1C2=O with inhibition at 5 µM of 50% or above?
Ans: Not fulfilled

Q: Determine whether this compound has inhibition at 5 µM no lower than 50%: O=C1c2ccccc2C(=O)c2nc(CS(=O)(=O)c3cccs3)c(CS(=O)(=O)c3cccs3)nc21
Ans: Not fulfilled

Q: Does the compound O=C1c2ccccc2C(=O)c2nc(CS(=O)(=O)c3ccc([N+](=O)[O-])cc3)c(CS(=O)(=O)c3ccc([N+](=O)[O-])cc3)nc21 have recorded inhibition at 5 µM that is 50% or more?
Ans: Fulfilled

Q: Reported inhibition at 5 µM at or above 50%? O=C1c2ccccc2C(=O)c2nc(C=C3CCCC3)c(C=C3CCCC3)nc21
Ans: Fulfilled

Q: Exam item: decide whether the reported inhibition at 5 µM for O=C1c2ccccc2C(=O)c2nc(CS(=O)(=O)c3ccccc3)c(CS(=O)(=O)c3ccccc3)nc21 is at least 50%.
Ans: Fulfilled

Q: Quick check, inhibition at 5 µM >= 50%? O=C1c2ccccc2C(=O)c2nc(CS(=O)(=O)c3ccc(F)cc3)c(CS(=O)(=O)c3ccc(F)cc3)nc21
Ans: Fulfilled
